Provenance of the data: patent US20070218460A1

tested on: depp; experiment: Real-time quantitative PCR of PLsis marker gene expression; assay type: cell-based, human; settings: HepG2 cells, 24 hr exposure, relative value, control group = 1.0, GAPDH internal standard, n=3
READOUT: expression variation rate depp
One number for each entry.

Guide cases for expression variation rate depp, answers given:
COMPOUND: CN[C@H]1CC[C@@H](c2ccc(Cl)c(Cl)c2)c2ccccc21
expression variation rate depp: 4.44
//
COMPOUND: O=C(CCCN1CCC(O)(c2ccc(Cl)cc2)CC1)c1ccc(F)cc1
expression variation rate depp: 1.38
//
COMPOUND: CCCCc1oc2ccccc2c1C(=O)c1cc(I)c(OCCN(CC)CC)c(I)c1
expression variation rate depp: 1.12
//
COMPOUND: CN(C)CCCN1c2ccccc2CCc2ccccc21
expression variation rate depp: 3.36
//
COMPOUND: CN(C)CCC=C1c2ccccc2CCc2ccccc21
expression variation rate depp: 5.08

For every item below, please supply its expression variation rate depp.
1. Clc1ccccc1CNCC1CCC(CNCc2ccccc2Cl)CC1 (centres unmarked)
2. CC1COc2c(N3CCN(C)CC3)c(F)cc3c(=O)c(C(=O)O)cn1c23 (centres unmarked)
3. CN(C)CCCN1c2ccccc2CCc2ccc(Cl)cc21
4. CC(C)N(CCC(C(N)=O)(c1ccccc1)c1ccccn1)C(C)C (centres unmarked) [disopyramide]
5. Cc1cc(NS(=O)(=O)c2ccc(N)cc2)no1
6. CN1CCN(C2=Nc3cc(Cl)ccc3Nc3ccccc32)CC1

a:
1: 3.32; 2: 0.79; 3: 2.08; 4: 0.90; 5: 0.70; 6: 5.15

###

test system: hpn; experiment: Real-time quantitative PCR of PLsis marker gene expression; assay type: cell-based, human; settings: HepG2 cells, 24 hr exposure, relative value, control group = 1.0, GAPDH internal standard, n=3
Cut-off 1 on expression variation rate hpn, inclusive. At or above means YES; below means NO.

Worked examples follow.
MOLECULE: CC/C(=C(\c1ccccc1)c1ccc(OCCN(C)C)cc1)c1ccccc1
DISCRETE_LABEL: YES
--
MOLECULE: CC(=O)Nc1ccc(O)cc1
DISCRETE_LABEL: YES
--
MOLECULE: CC(C)NCC(O)c1ccc(NS(C)(=O)=O)cc1 (centres unmarked)
DISCRETE_LABEL: NO

q: Please check the record "CN(C)C/C=C(/c1ccc(Br)cc1)c1cccnc1" and state if its expression variation rate hpn is at or above 1.
a: YES

q: Hi, just wondering whether CC(C)N(CCC(C(N)=O)(c1ccccc1)c1ccccn1)C(C)C (centres unmarked) [disopyramide] shows expression variation rate hpn of 1 or higher.
a: YES

###

system: fabp1; test: Real-time quantitative PCR of PLsis marker gene expression; assay type: cell-based, human; settings: HepG2 cells, 24 hr exposure, relative value, control group = 1.0, GAPDH internal standard, n=3
Please use condition met for expression variation rate fabp1 under 2 and condition not met for everything else, ties included.

Below are worked cases with known answers.
MOLECULE: CC(=O)Nc1ccc(O)cc1
DISCRETE_LABEL: condition met

MOLECULE: CN1CCN(C2=Nc3cc(Cl)ccc3Nc3ccccc32)CC1
DISCRETE_LABEL: condition not met

MOLECULE: CC[C@H]1OC(=O)[C@H](C)[C@@H](O[C@H]2C[C@@](C)(OC)[C@@H](O)[C@H](C)O2)[C@H](C)[C@@H](O[C@@H]2O[C@H](C)C[C@H](N(C)C)[C@H]2O)[C@](C)(O)C[C@@H](C)C(=O)[C@H](C)[C@@H](O)[C@]1(C)O
DISCRETE_LABEL: condition met

q: Problem: For the molecule CSc1ccc2c(c1)N(CCC1CCCCN1C)c1ccccc1S2 (centres unmarked) , is expression variation rate fabp1 under 2?
a: condition not met

q: Is it true that expression variation rate fabp1 reported for CCN(CC)CCNC(=O)c1ccc(N)cc1 [procainamide] is less than 2?
a: condition met

q: Lab note: expression variation rate fabp1 threshold 2. Does this molecule come in strictly under it? CC(=O)N1CCN(c2ccc(OCC3COC(Cn4ccnc4)(c4ccc(Cl)cc4Cl)O3)cc2)CC1 (centres unmarked)
a: condition not met

q: Hi there! Is expression variation rate fabp1 for "CC/C(=C(\c1ccccc1)c1ccc(OCCN(C)C)cc1)c1ccccc1" below 2, do you know?
a: condition met
